subjectOfTest: XIAP-BIR3 (Homo sapiens)
measurementDescription: XIAP BIR3 fluorescence polarization binding assay (competition with AbuRPF-K(5-Fam)-NH2)
measurementConditions: 5 nM AbuRPF-K(5-Fam)-NH2, 40 nM XIAP-BIR3, pH 7.5; Kd calculated from measured IC50; read-out: KD Range
pKd: −log10 of the molar value.
reportedMetric: pKd

Examples from the recorded data:
>>> result("CCc1ccccc1OCCC[C@@H]1C[C@H](Oc2ccccc2)CN1C(=O)[C@@H](NC(=O)[C@H](C)NC)C(C)C")
"6.00 to 7.00"
>>> result("C[C@H](N)C(=O)N[C@H]1CCCNC(=O)CCc2oc3ccccc3c2C[C@@H]2CCCN2C1=O")
"6.00 to 7.00"

Query string: For CCc1ccccc1OCCC[C@H]1C[C@H](Oc2ccccc2)CN1C(=O)[C@@H](NC(=O)[C@H](C)N)C(C)C , write its pKd.
Result string: 6.00 to 7.00

----------
Provide the reported Kd of each item.
subjectOfTest: XIAP-BIR3 (Homo sapiens, UniProt P98170)
Sequence (P98170 241-356 limits assumed): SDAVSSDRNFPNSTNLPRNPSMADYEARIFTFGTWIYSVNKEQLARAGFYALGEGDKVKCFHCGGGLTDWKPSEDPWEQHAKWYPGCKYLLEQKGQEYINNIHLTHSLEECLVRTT
measurementDescription: XIAP BIR3 fluorescence polarization binding assay (competition with AbuRPF-K(5-Fam)-NH2)
measurementConditions: 5 nM AbuRPF-K(5-Fam)-NH2, 40 nM XIAP-BIR3, pH 7.5; Kd calculated from measured IC50; read-out: KD Range

Examples from the recorded data:
>>> result("CC#CCn1cc(CC2CCCN2C(=O)C(NC(=O)C(C)N)C(C)C)c2ccccc21 (stereo not shown)")
"100 to 1000 nM"
>>> result("CC(N)C(=O)NC(C(=O)N1CCCC1COc1ccccc1)C(C)C (stereo not shown)")
"100 to 1000 nM"
>>> result("Cc1ccc(S(=O)(=O)n2cc(C[C@@H]3CCCN3C(=O)[C@@H](NC(=O)[C@H](C)N)C(C)C)c3ccccc32)cc1")
"< 100 nM"

# next compound below
Query string: For CC(C)[C@H](NC(=O)[C@H](C)NC(=O)OC(C)(C)C)C(=O)N1C[C@@H](Oc2ccccc2)C[C@H]1/C=C/COc1ccc2c(c1)CCCC2 , write its Kd.
Result string: > 10000 nM

----------
subjectOfTest: XIAP-BIR3 (Homo sapiens)
measurementDescription: XIAP BIR3 fluorescence polarization binding assay (competition with AbuRPF-K(5-Fam)-NH2)
measurementConditions: 5 nM AbuRPF-K(5-Fam)-NH2, 40 nM XIAP-BIR3, pH 7.5; Kd calculated from measured IC50; read-out: KD Range
reportedMetric: Kd

>>> result("CC(C)Oc1ccccc1OCCC[C@@H]1C[C@H](Oc2ccccc2)CN1C(=O)[C@@H](NC(=O)[C@H](C)N)C(C)C")
"100 to 1000 nM"
>>> result("CCc1ccccc1OCCC[C@@H]1C[C@H](Oc2ccccc2)CN1C(=O)[C@@H](NC(=O)[C@H](C)NC)C(C)(C)C")
"100 to 1000 nM"
>>> result("Cc1cccc(C)c1OC/C=C/[C@@H]1C[C@H](Oc2ccccc2)CN1C(=O)[C@@H](NC(=O)[C@H](C)N)C(C)C")
"< 100 nM"
>>> result("CN[C@@H](C)C(=O)N[C@H](C(=O)N1C[C@@H](Oc2ccccc2)C[C@H]1Cc1coc2ccccc12)C1CCCCC1")
"< 100 nM"
>>> result("CC(N)C(=O)NC(C(=O)N1CCCC1Cc1c(CCC(=O)O)oc2ccccc12)C(C)C (centres unmarked)")
"100 to 1000 nM"
>>> result("CCC(NC)C(=O)NC(C(=O)N1CCCC1Cc1cn(CCOCCOCCOC)c2ccccc12)C1CCCCC1 (centres unmarked)")
"100 to 1000 nM"
>>> result("Cc1cccc2c(CC3CCCN3C(=O)C(NC(=O)C(C)N)C(C)C)c[nH]c12 (centres unmarked)")
"< 100 nM"

# next compound below
Query string: For CC(C)C(NC(=O)C1CCCN1)C(=O)N1CCCC1Cc1coc2ccccc12 (centres unmarked) , write its Kd.
Result string: > 10000 nM

----------
subjectOfTest: XIAP-BIR3 (Homo sapiens)
measurementDescription: XIAP BIR3 fluorescence polarization binding assay (competition with AbuRPF-K(5-Fam)-NH2)
measurementConditions: 5 nM AbuRPF-K(5-Fam)-NH2, 40 nM XIAP-BIR3, pH 7.5; Kd calculated from measured IC50; read-out: KD Range
Method: Binding constants (Kd) were measured using fluorescence polarization as described by Zaneta Nikolovska-Coleska, Renxiao Wang, Xueliang Fang, Hongguang Pan, York Tomita, Peng Li, Peter P. Roller, Krzysztof Krajewski, Naoyuki Saito, Jeanne Stuckey and Shaomeng Wang, in “Development and Optimization of a Binding Assay for the XIAP BIR3 Domain Using Fluorescence Polarization”, Analytical Biochemistry 2004, 332, 261-273). […]
pKd: −log10 of the molar value. Structures can show the parent of a compound that is named as a salt.
Provide the reported pKd of each item.

Examples from the recorded data:
>>> result("CNC(C)C(=O)NC(C(=O)N1CCCC1Cc1cn(C(C)=O)c2cc(F)ccc12)C1CCCCC1 (stereo not shown)")
"6.00 to 7.00"
>>> result("CN[C@@H](C)C(=O)N[C@H](C(=O)N1C[C@@H](Oc2ccccc2)C[C@H]1/C=C/COc1cccc(Cl)c1Cl)C(C)C")
"6.00 to 7.00"
>>> result("CC(NC(=O)OC(C)(C)C)C(=O)NC(C(=O)N1CCCC1Cc1cn(C(=O)OC(C)(C)C)c2ccccc12)C(C)C (stereo not shown)")
"< 5.00"
>>> result("CCc1ccccc1OC/C=C/[C@@H]1C[C@H](Oc2ccccc2)CN1C(=O)[C@@H](NC(=O)[C@H](C)N)C(C)C")
"6.00 to 7.00"
>>> result("C#CCn1cc(CC2CCCN2C(=O)C(NC(=O)C(C)N)C(C)C)c2ccccc21 (stereo not shown)")
"> 7.00"
>>> result("CC(NCC1CC1)C(=O)NC(C(=O)N1CCCC1Cc1coc2ccccc12)C(C)C (stereo not shown)")
"5.00 to 6.00"
>>> result("COc1ccc2occ(CC3CCCN3C(=O)C(NC(=O)C(C)N)C(C)C)c2c1 (stereo not shown)")
"5.00 to 6.00"
>>> result("CC(NC=O)C(=O)NC(C(=O)N1CCCC1Cc1coc2ccccc12)C(C)C (stereo not shown)")
"< 5.00"
>>> result("CC(N)C(=O)NC(C(=O)N1CCCC1CCCOc1ccccc1)C(C)C (stereo not shown)")
"5.00 to 6.00"
>>> result("CNC(C)C(=O)NC(C(=O)N1CCCC1Cc1coc2ccccc12)C(C)C (stereo not shown)")
"> 7.00"

State recorded pKd for all listed compounds.
1. CC(C)[C@H](NC(=O)[C@H](C)N)C(=O)N1C[C@@H](Oc2ccccc2)C[C@H]1/C=C/COc1cccc(Cl)c1Cl
2. CCOC(=O)CCc1oc2ccccc2c1CC1CCCN1C(=O)C(NC(=O)C(C)N)C(C)C (stereo not shown)

Result string:
6.00 to 7.00
5.00 to 6.00

State recorded pKd for all listed compounds.
1. CNC(C)C(=O)NC(C(=O)N1CCCC1Cc1cn(C(C)=O)c2cc(F)ccc12)C(C)(C)C (stereo not shown)
2. CC(C)Oc1ccccc1OC/C=C/[C@@H]1C[C@H](Oc2ccccc2)CN1C(=O)[C@@H](NC(=O)[C@H](C)N)C(C)C
3. C#CCOC(C)[C@H](NC(=O)[C@H](C)N)C(=O)N1CCC[C@H]1Cc1coc2ccccc12 (stereo partly shown)
4. CC[C@H](N)C(=O)N[C@H](C(=O)N1C[C@@H](Oc2ccccc2)C[C@H]1Cc1coc2ccccc12)C(C)C
5. CN[C@@H](C)C(=O)N[C@H](C(=O)N1C[C@@H](Oc2ccccc2)C[C@H]1Cc1coc2ccccc12)C(C)C

Result string:
1. 6.00 to 7.00
2. 6.00 to 7.00
3. > 7.00
4. > 7.00
5. > 7.00

State recorded pKd for all listed compounds.
1. CC(N)C(=O)NC(C(=O)N1CC(Oc2ccccc2)CC1Cc1coc2ccccc12)C(C)C (single isomer, unassigned)
2. CC(C)[C@H](NC(=O)[C@H](C)N)C(=O)N1C[C@@H](Oc2ccccc2)C[C@H]1COc1ccccc1 [Entry 2-1, hydrochloride]

Result string:
1. 5.00 to 6.00
2. 6.00 to 7.00

State recorded pKd for all listed compounds.
1. CC(N)C(=O)NC(C(=O)N1CCCC1Cc1c(Br)oc2ccccc12)C(C)C (stereo not shown)
2. CC(N)C(=O)NC(C(=O)N1CCCC1Cc1coc2ccc(O)cc12)C(C)C (stereo not shown)
3. CC(C)[C@H](NC(=O)[C@H](C)N)C(=O)N1CCC[C@H]1CCCOc1ccccc1-c1ccccc1

Result string:
6.00 to 7.00
5.00 to 6.00
6.00 to 7.00

State recorded pKd for all listed compounds.
1. CC(C)C(NC(=O)CN)C(=O)N1CCCC1Cc1coc2ccccc12 (stereo not shown)
2. COc1ccccc1OC/C=C/[C@@H]1C[C@H](Oc2ccccc2)CN1C(=O)[C@@H](NC(=O)[C@H](C)N)C(C)C
3. CC(C)c1ccccc1OCCC[C@@H]1C[C@H](Oc2ccccc2)CN1C(=O)[C@@H](NC(=O)[C@H](C)N)C(C)C

Result string:
["< 5.00", "6.00 to 7.00", "6.00 to 7.00"]
